System: TK-10 renal
Test: NCI tumour cell line growth inhibition, 48 h
result_type: TGI

- compound: "Clc1ccc(Cn2cc(/C=N/n3cnnc3)c3ccccc32)cc1"
  assay_value: "28.7 µM"
- compound: "Cc1ccc(O)cc1Nc1ccnc2cc(-c3ccccn3)ccc12"
  assay_value: "4.23 µM"
- compound: "Cc1cc(C)c(S(=O)(=O)N(CCCN)OCCCN)c(C)c1"
  assay_value: "> 100 µM"
- compound: "O=S(=O)(O)c1ccc2c(N=Nc3c(O)ccc4ccccc34)cccc2c1"
  assay_value: "> 100 µM"
- compound: "O=C(O)Cn1ccc(=O)c2c([N+](=O)[O-])cccc21"
  assay_value: "> 100 µM"
- compound: "COc1cccc(/C=N/[N-]C(N)=O)c1[O-].[OH3+].[Pd+2]"
  assay_value: "> 100 µM"
- compound: "CCOc1ccc(/C=C2/C(=O)N=C(N)N=C2N)cc1OCC"
  assay_value: "> 100 µM"
- compound: "CC(=O)Oc1ccc(/C=C/C(=O)NCCOC(=O)/C=C/c2ccc(OC(C)=O)c(OC(C)=O)c2)cc1OC(C)=O"
  assay_value: "> 100 µM"
- compound: "CC1(C)OC2OC(COC(=O)C(c3ccccc3)c3ccccc3)C3OC(C)(C)OC3C2O1 (stereo not given)"
  assay_value: "> 100 µM"
- compound: "Cc1ccc(NC2=CC(=O)C(=O)c3ccccc32)c(C)c1"
  assay_value: "12.2 µM"
- compound: "Clc1cccc2[nH]ncc12"
  assay_value: "> 100 µM"
- compound: "COC(=O)c1ccc2c(c1)C(=O)c1c-2n(CCCCl)c(=O)c2cc(OC)c(OC)cc12"
  assay_value: "> 100 µM"
- compound: "CC(=O)OC1COC(Oc2c(C)c3c4c(c2O)[C@@H](C)CC[C@@H]4[C@@H](C)C[C@H]3C=C(C)C)C(O)C1O (stereo not given in full)"
  assay_value: "31 µM"
- compound: "CC(=O)O[C@H]1C[C@@H](OC(C)=O)[C@@](C)(O)[C@@H]2[C@@H](OC(C)=O)[C@@]3(O)[C@H](/C=C(/CCl)[C@H]4O[C@H]4[C@@H](OC(C)=O)[C@@]12C)OC(=O)[C@@H]3C"
  assay_value: "> 25 µM"
- compound: "COc1cc(OC)c(/C=C/C(=O)c2c(N)cc(OC)cc2OC)c(OC)c1"
  assay_value: "> 100 µM"
- compound: "O=S(=O)(NCCCNc1nccc(-c2c(-c3cccc(F)c3)nc3occn23)n1)c1cccc2ccccc12"
  assay_value: "> 100 µM"
- compound: "O=C(Nc1ccc(Cl)c(C(F)(F)F)c1)C(=O)c1c(O)c2ccccc2oc1=O"
  assay_value: "> 100 µM"
- compound: "Cc1cc(C)nc(NC(=S)Nc2ccc(Cl)cc2)c1"
  assay_value: "> 100 µM"
- compound: "COc1cccc2c1[C@H]1OC(=O)NC1CCCCC2 (stereo not given in full)"
  assay_value: "> 100 µM"
- compound: "Nc1c(-c2nc3ccccc3s2)[n+]([O-])c2ccccc2[n+]1[O-]"
  assay_value: "> 100 µM"
- compound: "CCOc1cc(/C=C/C(=O)CC(=O)/C=C/c2ccc(OC(=O)CNCCN(CC)CC)c(OCC)c2)ccc1OC(=O)CNCCN(CC)CC"
  assay_value: "6.38 µM"
- compound: "Cc1cc2c(cc1C)[n+](=O)c(C(=O)/C=C/c1ccccc1[N+](=O)[O-])c(C)n2[O-]"
  assay_value: "69.7 µM"
- compound: "COC(=O)C1(Cc2ccccc2)Cc2c(C)ccc(C)c2C1=O (stereo not given)"
  assay_value: "> 100 µM"
- compound: "Nc1n[nH]c2ccc([C@@H]3Nc4c(F)cc5[nH]ncc5c4[C@H]4C5CCC(C5)[C@@H]34)cc12 (stereo not given in full)"
  assay_value: "> 79.4 µM"
- compound: "Nc1nc2c(c(=O)[nH]1)NC(CCNc1ccc(C(=O)O)cc1)CN2 (stereo not given)"
  assay_value: "> 100 µM"
- compound: "Nc1c(C(=O)c2ccccc2)nnc2ccccc12"
  assay_value: "54.7 µM"
- compound: "CCCCC1Cc2cc(OC)ccc2-c2n1c1cc(OC)ccc1[n+]2C (stereo not given) (tested in a mixture with another compound)"
  assay_value: "31.9 µM"
- compound: "N#Cc1c(N)nc2n[nH]c(N)c2c1-c1ccccc1"
  assay_value: "> 27.1 µM"
- compound: "Fc1ccc(C(OCCN2CC3CC2CN3)c2ccc(F)cc2)cc1 (stereo not given)"
  assay_value: "> 100 µM"
- compound: "Cc1cn2c(/C=C3/C(=O)Nc4ccc(C(=O)O)cc43)c(C)nc2s1"
  assay_value: "> 100 µM"
- compound: "CC(=O)O[C@H]1C[C@H]2[C@@H]([C@H](OC(C)=O)C[C@@H]3CC4(CC[C@@]32C)OOC2(CCCCC2)OO4)[C@@H]2CC[C@H]([C@H](C)CCC(=O)O)[C@@]12C"
  assay_value: "27 µM"
- compound: "O/N=C1\\CSc2ccccc2C1"
  assay_value: "> 100 µM"
- compound: "CON(C)C(=O)C(C)NC(=O)OC(C)(C)C (stereo not given)"
  assay_value: "> 100 µM"
- compound: "O=c1c2ccccc2n2cnc3ccc(NCCNCCO)c1c32"
  assay_value: "15.7 µM"
- compound: "Clc1ccc(-c2nnc(-c3nsc4ccccc34)o2)cc1"
  assay_value: "51.2 µM"
- compound: "Cc1cc(NS(=O)(=O)c2ccc(NC(=O)c3ccc4nc5ccccc5c(Nc5ccc(S(=O)(=O)Nc6cc(C)on6)cc5)c4c3)cc2)no1"
  assay_value: "> 50 µM"
- compound: "OC1CSCCSCCCSCCSC1"
  assay_value: "> 100 µM"
- compound: "NCC(Cc1ccccc1)P(=O)(O)O (stereo not given)"
  assay_value: "> 100 µM"
- compound: "CCOC(=O)C(C)(Cc1ccc(O)cn1)NC(=O)c1ccccc1 (stereo not given)"
  assay_value: "> 100 µM"
- compound: "CCCC(=O)OC1C(C2COC(C)(C)O2)OC2OC(C)(C)OC21 (stereo not given)"
  assay_value: "> 100 µM"

Values compiled from PubChem BioAssay (NCI).
